Value source: the RNAGym collection of RNA variant scans (doi:10.7554/elife.80360)

B1: Twister Ribozyme (parent)
chain: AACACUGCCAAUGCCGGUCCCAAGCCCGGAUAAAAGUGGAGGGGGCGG

variants of: B1; assay: self-cleavage, relative activity (ratio to wild type); higher = more cleavage; co-transcriptional
Entries and their self-cleavage
value-type: self-cleavage

INSERT INTO measurements (mutant_label, assay_result) VALUES
  ('C21U G24C', 0.0925),
  ('A30U A40G', 0.165),
  ('C27U A35U', 0.775),
  ('C3A A35G', 0.222),
  ('A23C A33G', 0.0917);
